Biological target: T1, human CD71 extracellular domain (human, UniProt P02786 89-760)
T1 construct: also called hCD71; CD71-ECD
T1 sequence (P02786 89-760): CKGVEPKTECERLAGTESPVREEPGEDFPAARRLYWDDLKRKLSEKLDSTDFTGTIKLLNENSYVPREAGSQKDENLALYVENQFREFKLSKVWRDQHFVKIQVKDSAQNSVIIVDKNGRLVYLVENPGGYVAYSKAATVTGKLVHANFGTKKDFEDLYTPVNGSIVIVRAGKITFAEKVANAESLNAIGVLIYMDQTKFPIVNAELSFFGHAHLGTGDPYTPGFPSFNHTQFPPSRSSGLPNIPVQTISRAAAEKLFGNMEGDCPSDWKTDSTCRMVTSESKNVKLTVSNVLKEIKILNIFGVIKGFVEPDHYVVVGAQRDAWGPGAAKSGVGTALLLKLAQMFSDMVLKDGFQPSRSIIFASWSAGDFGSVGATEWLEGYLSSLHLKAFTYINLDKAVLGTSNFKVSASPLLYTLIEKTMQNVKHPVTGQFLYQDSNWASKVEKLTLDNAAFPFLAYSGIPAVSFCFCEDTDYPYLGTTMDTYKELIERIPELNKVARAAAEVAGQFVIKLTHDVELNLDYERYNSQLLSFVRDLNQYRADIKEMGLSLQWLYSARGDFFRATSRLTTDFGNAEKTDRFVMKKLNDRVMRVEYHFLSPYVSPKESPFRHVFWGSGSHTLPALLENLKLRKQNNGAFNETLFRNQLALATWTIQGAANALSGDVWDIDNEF
Experiment: primary ELISA; note: test concentration or dose not given here
metric: RLU (RLU)
Use RLU as the unit, but write only the number.

Which RLU value belongs to CD71-binding FN3 domain SEQ ID NO 407 (designed binder) MLPAPKNLVVSRVTEDSARLSWTAPDAAFDSFEIAYFETCRTGEAIVLTVPGSERSYDLTGLKPGTEYRVWIGGVKGGVWSRPLSAIFTT ? 1.73e+06

Which RLU value belongs to CD71-binding FN3 domain SEQ ID NO 428 (designed binder) MLPAPKNLVVSRVTEDSARLSWTAPDAAFDSFFIGYLEPQPPGEAISLYVPGSERSYDLTGLKPGTEYNVTIQGVKGGFPSNPLIAQFTT ? 6.19e+06

Which RLU value belongs to CD71-binding FN3 domain SEQ ID NO 352 (designed binder) MLPAPKNLVVSRVTEDSARLSWTAPDAAFDSFEIAYQELSLWGEAIVLTVPGSERSYDLTGLKPGTEYYVHIGGVKGGIWSSPLSAIFTT ? 2.38e+06

Which RLU value belongs to CD71-binding FN3 domain SEQ ID NO 411 (designed binder) MLPAPKNLVVSRVTEDSARLSWTAPDAAFDSFFIGYLEPQPPGEAISLFVPGSERSYDLTGLKPGTEYNVTIQGVKGGFPSVPLSATFTT ? 5.23e+06

Which RLU value belongs to CD71-binding FN3 domain SEQ ID NO 414 (designed binder) MLPAPKNLVVSRVTEDSARLSWTAPDAAFDSFFIGYLEPQPPGEAIHLYVPGSERSYDLTGLKPGTEYNVTIQGVKGGFPSHPLIANFTT ? 6.71e+06

Which RLU value belongs to CD71-binding FN3 domain SEQ ID NO 383 (designed binder) MLPAPKNLVVSRVTEDSARLSWTAPDAAFDSFFIGYLEPQPPGEAIDLWVPGSERSYDLTGLKPGTEYNVTIQGVKGGFPSLPLDAVFTT ? 1.85e+06

Which RLU value belongs to CD71-binding FN3 domain SEQ ID NO 351 (designed binder) MLPAPKNLVVSRVTEDSARLSWTAPDAAFDSFFIGYLEPQPPGEAITLAVPGSERSYDLTGLKPGTEYNVTIQGVKGGFPSNPLLAAFTT ? 2.67e+06

Which RLU value belongs to CD71-binding FN3 domain SEQ ID NO 392 (designed binder) MLPAPKNLVVSRVTEDSARLSWTAPDAAFDSFFIGYLEPQPPGEAIHLGVPGSERSYDLTGLKPGTEYNVTIQGVKGGFPSLPLVATFTT ? 4.77e+06

Which RLU value belongs to CD71-binding FN3 domain SEQ ID NO 355 (designed binder) MLPAPKNLVVSRVTEDSARLSWTAPDAAFDSFFIGYLEPQPPGEAIHLYVPGSERSYDLTGLKPGTEYNVTIQGVKGGFPSHPLYADFTT ? 3.58e+06

Which RLU value belongs to CD71-binding FN3 domain SEQ ID NO 365 (designed binder) MLPAPKNLVVSRVTEDSARLSWTAPDAAFDSFFIGYLEPQPPGEAIVLWVPGSERSYDLTGLKPGTEYNVTIQGVKGGFPSHPLVAKFTT ? 6.85e+06

Which RLU value belongs to CD71-binding FN3 domain SEQ ID NO 385 (designed binder) MLPAPKNLVVSRVTEDSARLSWTAPDAAFDSFFIGYLEPQPPGEAIDLYVPGSERSYDLTGLKPGTEYNVTIQGVKGGFPSHPLQAHFTT ? 5.74e+06

Which RLU value belongs to CD71-binding FN3 domain SEQ ID NO 410 (designed binder) MLPAPKNLVVSRVTEDSARLSWTAPDAAFDSFFIGYLEPQPPGEAIALWVPGSERSYDLTGLKPGTEYNVTIQGVKGGFPSQPLHAHFTT ? 3.9e+06

Which RLU value belongs to CD71-binding FN3 domain SEQ ID NO 426 (designed binder) MLPAPKNLVVSRVTEDSARLSWTAPDAAFDSFFIGYLEPQPPGEAIFLLVPGSERSYDLTGLKPGTEYNVTIQGVKGGFPSMPLSAIFTT ? 4.43e+06

Which RLU value belongs to CD71-binding FN3 domain SEQ ID NO 364 (designed binder) MLPAPNNLVVSRVTEDSARLSWTAPDAAFDSFFIGYLEPQPPGEAIHLFVPGSERSYDLTGLKPGTEYNVTIQGVKGGFPSGPLHATFTT ? 5.83e+06

Which RLU value belongs to CD71-binding FN3 domain SEQ ID NO 380 (designed binder) MLPAPKNLVVSRVTEDSARLSWTAPDAAFDSFFIGYLEPQPPGEAIGLFVPGSERSYDLTGLKPGTEYNVTIQGVKGGFPSMPLSAIFTT ? 5.32e+06

Which RLU value belongs to CD71-binding FN3 domain SEQ ID NO 377 (designed binder) MLPAPKNLVVSRVTEDSARLSWTAPDAAFDSFFIGYLEPQPPGEAIQLWVPGSERSYDLTGLKPGTEYNVTIQGVKGGFPSTPLQALFTT ? 1.57e+06

Which RLU value belongs to CD71-binding FN3 domain SEQ ID NO 442 (designed binder) MLPAPKNLVVSRVTEDSARLSWTAPDAAFDSFEIWYAEWRQVGEAIVLTVPGSERSYDLTGLKPGTEYNVDIHGVKGGKVSWPLSAISTT ? 4.92e+06

Which RLU value belongs to CD71-binding FN3 domain SEQ ID NO 421 (designed binder, The cell prints '42') MLPAPKNLVVSRVTEDSARLSWTAPDAAFDSFFIGYLEPQPPGEAIDLWVPGSERSYDLTGLKPGTEYNVTIQGVKGGFPSMPLEAVFTT ? 1.76e+06
